assay: Cytotoxicity against human MKN45 cells after 72 hrs by MTT assay; settings: MKN-45, 72 h
pIC50: −log10 of the molar value.
Known pIC50 of a selection of molecules
valueKind: pIC50

>>> measuredresult("COc1cc2c(Oc3ccc(NC(=O)c4cn(-c5ccccc5OC)cn4)cc3F)ccnc2cc1OCCCN1CCCCC1")
6.59
>>> measuredresult("COc1cc2c(Oc3ccc(NC(=O)c4cn(-c5cc(C)ccc5C)cn4)cc3F)ccnc2cc1OCCCN1CCC(C)CC1")
5.25
>>> measuredresult("COc1cc2c(Oc3ccc(NC(=O)/C=C/S(=O)(=O)c4ccccc4F)cc3F)ccnc2cc1OCCCN1CCC(C)CC1")
6.08
>>> measuredresult("COc1cc2c(Oc3ccc(NC(=O)c4cn(-c5ccc(Cl)cc5Cl)cn4)cc3F)ccnc2cc1OCCCN1CCN(C)CC1")
5.32
>>> measuredresult("COc1cc2c(Oc3ccc(NC(=O)c4cn(-c5ccccc5OC)cn4)cc3F)ccnc2cc1OCCCN1CCN(C)CC1")
6.66
>>> measuredresult("COc1cc2c(Oc3ccc(NC(=O)c4cn(-c5ccccc5OC(F)(F)F)cn4)cc3F)ccnc2cc1OCCCN1CCCCC1")
6.72
>>> measuredresult("COc1cc2c(Oc3ccc(NC(=O)/C=C/S(=O)(=O)c4ccc(C)cc4)cc3F)ccnc2cc1OCCCN1CCN(C)CC1")
5.60
>>> measuredresult("COc1cc2c(Oc3ccc(NC(=O)/C=C/S(=O)(=O)c4ccccc4OC)cc3F)ccnc2cc1OCCCN1CCN(C)CC1")
6.37
>>> measuredresult("COc1cc2c(Oc3ccc(NC(=O)/C=C/S(=O)(=O)c4ccccc4OC)cc3F)ccnc2cc1OCCCN1CCCCC1")
6.01
>>> measuredresult("COc1cc2c(Oc3ccc(NC(=O)/C=C/S(=O)(=O)c4ccccc4OC)cc3F)ccnc2cc1OCCCN1CCC(C)CC1")
5.69
>>> measuredresult("COc1cc2c(Oc3ccc(NC(=O)c4cn(-c5ccccc5OC(F)(F)F)cn4)cc3F)ccnc2cc1OCCCN1CCC(C)CC1")
6.82
>>> measuredresult("COc1cc2c(Oc3ccc(NC(=O)/C=C/S(=O)(=O)c4ccccc4OC)cc3F)ccnc2cc1OCCCN1CCOCC1")
5.83
>>> measuredresult("COc1cc2c(Oc3ccc(NC(=O)c4cn(-c5ccccc5OC(F)(F)F)cn4)cc3F)ccnc2cc1OCCCN1CCN(C)CC1")
6.92
>>> measuredresult("COc1cc2c(Oc3ccc(NC(=O)c4cn(-c5ccc(Cl)cc5)cn4)cc3F)ccnc2cc1OCCCN1CCN(C)CC1")
5.39
>>> measuredresult("COc1cc2c(Oc3ccc(NC(=O)c4cn(-c5cc(C)ccc5C)cn4)cc3F)ccnc2cc1OCCCN1CCOCC1")
5.49
>>> measuredresult("COc1cc2c(Oc3ccc(NC(=O)c4cn(-c5ccc(Cl)cc5Cl)cn4)cc3F)ccnc2cc1OCCCN1CCCCC1")
5.20
>>> measuredresult("COc1cc2c(Oc3ccc(NC(=O)/C=C/S(=O)(=O)c4ccc(C)cc4)cc3F)ccnc2cc1OCCCN1CCCCC1")
5.77
>>> measuredresult("COc1cc2c(Oc3ccc(NC(=O)c4cn(-c5ccccc5OC)cn4)cc3F)ccnc2cc1OCCCN1CCC(C)CC1")
6.22
>>> measuredresult("COc1cc2c(Oc3ccc(NC(=O)c4cn(-c5ccccc5OC(F)(F)F)cn4)cc3F)ccnc2cc1OCCCN1CCOCC1")
6.74

Provenance of the data: ChEMBL document CHEMBL3872279
